assayExplanation: Toxicity liver stage against HepG2, at 10uM
Assay type: cell-based
Parameters: test concentration 10 uM, cell line HepG2-A16-CD81EGFP
experimentalSetup: human, HepG2-A16-CD81EGFP cells; read-out: INHIBITION
Below, each of the molecules is paired with its reported cytotoxicity at 10 µM value.
The reply should contain only the number, in %.

molecule	cytotoxicity at 10 µM / %
CC(C)CNC(=O)CC1(Cn2cnnn2)CCCCC1	11.1
Cc1cn2c(n1)CCC(NC(=O)c1ccc(OCC3CC3)nc1)C2 (stereo not drawn)	-9.47
O=C(C[S+]([O-])Cc1ccccc1F)N1CCc2sccc2C1 (stereo not drawn)	-8.02
O=C(CCn1cnnn1)N1CCCC(CO)(CCCc2ccccc2)C1 (stereo not drawn)	2.74

For COc1ccc(C(=O)NC[C@H]2COCc3nc4cc(C)ccc4n32)cc1 the molecule record lists cytotoxicity at 10 µM as 2.52

Memo: Cc1cccc(-c2noc(CN3CCn4c(nnc4C4CC4)C3)n2)c1 , reported cytotoxicity at 10 µM: -9.03

Quick note, cytotoxicity at 10 µM for CC(=O)N[C@@H]1CN(c2nc(C(N)=O)cs2)C[C@H]1c1ccc(C)o1 landed at -41.2

The reported value for Cc1cccc(C(=O)NC(C)CN2CCCC2=O)n1 (stereo not drawn) in terms of cytotoxicity at 10 µM is -9.51

###

assayExplanation: Toxicity liver stage against HepG2, at 10uM
Assay type: cell-based
Design: test concentration 10 uM, cell line HepG2-A16-CD81EGFP
experimentalSetup: human, HepG2-A16-CD81EGFP cells; read-out: INHIBITION
readoutType: cytotoxicity at 10 µM (%)
// note: answer is a bare numeric in %

compound	cytotoxicity at 10 µM [%]
CCc1noc(CS(=O)(=O)C(C)c2nc(C3CC3)no2)n1 (stereo not drawn)	11.3
COCCCNS(=O)(=O)c1cc(Br)sc1C	-6.14
O=C(c1cc(-n2cccn2)ccc1Cl)N1CCC(N2CCCC2=O)CC1	-2.08
CN(C)C(=O)[C@H]1C[C@@H]2CCN(Cc3ccncc3)C[C@H]2O1	0.866
Cc1nnc(CN(C)CC(=O)N2CCCN(C3CCCC3)CC2)n1C	7.1

# compound CCC1=N[C@@]2(CC[C@@H]3CN(CC4CC4)C[C@@H]32)C(=O)N1CC ; its cytotoxicity at 10 µM = 6.56

The recorded cytotoxicity at 10 µM for Cc1ccc(-c2nc(C(=O)N(C)CC(=O)N3CCCC3)cs2)c(C)c1 is -2.28

Entry Cc1nc(C)n(CC2CN(Cc3cc(C#N)ccc3F)CCO2)n1 (stereo not drawn) , cytotoxicity at 10 µM reported as -1.56

###

assayExplanation: Toxicity liver stage against HepG2, at 10uM
Assay type: cell-based
Parameters: test concentration 10 uM, cell line HepG2-A16-CD81EGFP
experimentalSetup: human, HepG2-A16-CD81EGFP cells; read-out: INHIBITION
# Lookup of reported cytotoxicity at 10 µM keyed by entry
Please state the number and follow it with the unit.

compound	measuredValue
CC1CCCN(CCCNC(=O)c2cn(C)nc2-c2cccnc2)C1 (stereo unspecified)	-3.24%
COCCS(=O)(=O)NC(C)c1cccc(C)c1C (stereo unspecified)	6.13%
CNC(=O)[C@H]1C[C@@H]2CN(C(=O)c3cnc(C)cn3)C[C@@H]2N1C	-108%
Cc1[nH]nc2ncc(C(=O)N3CCN(CC(O)C(C)(C)C)CC3)cc12 (stereo unspecified)	4.41%
CCc1cccc(NC(=O)N2CCn3cnc(COC)c3C2)c1	5.35%
CC(C)NC(=O)C1CN(C(=O)Cc2ccccc2)CC12CCOCC2 (stereo unspecified)	5.31%
CN(C)c1nccnc1N1CC[C@@]2(O)CCNC[C@H]2C1	7.12%
CC1CN(CC(=O)Nc2cccnc2)CCN1c1nccs1 (stereo unspecified)	-3.59%

Form field cytotoxicity at 10 µM, entry Cc1cccc(NCC(=O)Nc2cc(F)ccc2F)c1C(N)=O : 7.53%

Value of measured cytotoxicity at 10 µM for the entry O=C(NCc1cccc(F)c1)Nc1ccn(CCN2CCOCC2)n1 : -8.45%

Reported cytotoxicity at 10 µM of Cc1nc(C)n(CC2CCCN2Cc2ccn(-c3ccccc3)n2)n1 (stereo unspecified) : -5.01%

The measurements presented in this section are drawn from ChEMBL document CHEMBL4513216.
